# System: zebrafish Peroxisome Proliferator-activated Receptor gamma (PPARg), gene 557037
# test: ATG_zfPPARg_XSP2: Attagene TRANS-FACTORIAL Multi-Species (XSP2) HepG2 Assay for zebrafish Peroxisome Proliferator-activated Receptor gamma (PPARg) (AID 2283833);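 note: reporter mRNA from a zebrafish PPARg GAL4 chimera measured by RT-PCR and capillary electrophoresis; actives increase reporter signal over DMSO so AC50 reflects activation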
Results filed as inconclusive are left out. Active and inactive are the calls of the source. Rule for the calls: active = hit-call score of the fitted dose curve at least 0.9, where 1 is the maximum; inconclusive = response in the unintended direction; inactive = score below 0.9.
Outcomes: y for active, n for inactive

[
  {
    "compound": "CCCCCOC(=O)c1ccccc1C(=O)OCCCCC",
    "assigned_label": "y"
  },
  {
    "compound": "CCC[CH2][Sn]([Cl])([CH2]CCC)[CH2]CCC",
    "assigned_label": "n"
  },
  {
    "compound": "CCC(C)c1ccc(O)cc1 (centres undefined)",
    "assigned_label": "n"
  },
  {
    "compound": "c1ccc2c(c1)-c1cccc3cccc-2c13",
    "assigned_label": "n"
  }
]
